Origin of values: patent EP0270692A1

# Assay Notes: Test for acute toxicity (MLD; LD50)
# Test Conditions: mouse, in vivo, iv; read-out: Acute toxicity test LD50 iv
Structures can show the parent of a compound that is named as a salt.

Compound | LD50 at 72 h
CCN(CC)CCNC1c2cc(OC)ccc2OCc2ncccc21 (stereo not shown) [1.5 Fumarate of Compound 1] | 93 mg/kg

----------
# Assay Notes: Test for acute toxicity (MLD; LD50)
# Test Conditions: mouse, in vivo, po; read-out: Acute toxicity test LD50 po
Counter-ions that a name gives are not always drawn.

Compound | LD50 at 72 h
CCN(CC)CCNC1c2cc(OC)ccc2OCc2ncccc21 (stereo not shown) [1.5 Fumarate of Compound 1] | > 1000 mg/kg
